Tested on: NUGC4 (P53 WT)
Experiment: Cell viability assay (CellTiter-Glo, 6 days), NUGC4
Type: cell-based
Conditions: Homo sapiens, NUGC-4, 144 h; cell viability, 6 days, CellTiter-Glo; read-out: NUGC4 (P53 WT) IC50
Metric: IC50

Lookup: What value of IC50 has been recorded for this entry: CNC(=O)c1ccc(NCC#Cc2cc3c(N[C@@H]4CCN(C)C[C@@H]4F)cccc3n2CC(F)(F)F)c(OC)c1 [Example 57]
Found: 12 µM

Lookup: What value of IC50 has been recorded for this entry: "COc1cc(P(C)(C)=O)ccc1NCC#Cc1sc2c(N[C@@H]3CCN(C)C[C@@H]3F)cccc2c1CC(F)(F)F"
Found: 8.58 µM

Lookup: What value of IC50 has been recorded for this entry: "COc1cc(P(C)(C)=O)ccc1NCC#Cc1sc2c(N[C@H]3CCN(C)C[C@H]3F)cccc2c1CC(F)(F)F"
Found: 10.5 µM

Lookup: What value of IC50 has been recorded for this entry: CCP(=O)(CC)c1ccc(NCC#Cc2sc3c(N[C@@H]4CCN(C)C[C@@H]4F)cccc3c2CC(F)(F)F)c(OCF)c1 (racemic)
Found: 10.3 µM

Lookup: What value of IC50 has been recorded for this entry: "COc1c(NCC#Cc2sc3c(N[C@@H]4CCN(C)C[C@@H]4F)cccc3c2CC(F)(F)F)ccc(P(C)(C)=O)c1F"
Found: 12.2 µM

Lookup: What value of IC50 has been recorded for this entry: COc1cc(N2CCOCC2=O)ccc1NCC#Cc1sc2c(NC3CCN(C)CC3F)cccc2c1CC(F)(F)F (centres unmarked)
Found: 7.61 µM

Lookup: What value of IC50 has been recorded for this entry: "COc1cc(P(C)(C)=O)ccc1NCC#Cc1sc2c(N[C@H]3CCN(C)C[C@@H]3C)cccc2c1CC(F)(F)F"
Found: 2.26 µM

Lookup: What value of IC50 has been recorded for this entry: "CN1CC[C@H](Nc2cccc3c(CC(F)(F)F)c(C#CCNc4ccc(P(C)(C)=O)cc4C(F)F)sc23)[C@H](F)C1"
Found: 13.6 µM

Lookup: What value of IC50 has been recorded for this entry: "CN1CC[C@@H](Nc2cccc3c(CC(F)(F)F)c(C#CCOc4ccc(P(C)(C)=O)cc4C(N)=O)sc23)[C@@H](F)C1"
Found: > 50 µM

Lookup: What value of IC50 has been recorded for this entry: "CN1CC[C@@H](Nc2cccc3c(CC(F)(F)F)c(C#CCNc4ccc(P(C)(C)=O)cc4-c4ncon4)sc23)[C@@H](F)C1"
Found: 9.59 µM

Lookup: What value of IC50 has been recorded for this entry: COc1cc(P(C)(C)=O)ccc1NCC#Cc1sc2c(N[C@@H]3CCN(CC(C)C)C[C@@H]3F)cccc2c1CC(F)(F)F (racemic)
Found: 2.05 µM

Lookup: What value of IC50 has been recorded for this entry: "COc1cc(P(C)(C)=O)ccc1NCC#Cc1sc2c(N[C@H]3CCN(C4CCOCC4)C[C@H]3F)cccc2c1CC(F)(F)F"
Found: 3.08 µM

Lookup: What value of IC50 has been recorded for this entry: "COc1cc(P(C)(C)=O)ccc1NCC#Cc1sc2c(NC3CCN(CCCF)CC3)cccc2c1CC(F)(F)F"
Found: 4.1 µM

Lookup: What value of IC50 has been recorded for this entry: "CNC(=O)c1ccc(NCC#Cc2sc3c(N[C@@H]4CCN(C)C[C@@H]4F)cccc3c2CC(F)(F)F)c(OC)c1"
Found: 6.1 µM

Lookup: What value of IC50 has been recorded for this entry: COc1cc(P(C)(C)=O)ccc1NCC#Cc1sc2c(NC3CCN(C)CC3F)cccc2c1CC#N (racemic)
Found: 20.6 µM

Lookup: What value of IC50 has been recorded for this entry: "CNC(=O)c1ccc(NCC#Cc2cc3c(N[C@H]4CCN(C)C[C@H]4F)cccc3n2CC(F)(F)F)c(OC)c1"
Found: 13.1 µM

Lookup: What value of IC50 has been recorded for this entry: CNC(=O)c1cc(NCC#Cc2sc3c(NC4CCN(C)CC4F)cccc3c2CC(F)(F)F)c(OC)cc1P(C)(C)=O (racemic)
Found: 47.7 µM

Lookup: What value of IC50 has been recorded for this entry: "CN1CC[C@@H](Nc2cccc3c(CC(F)(F)F)c(C#CCNc4ccc(P(C)(C)=O)c5c4OCC5)sc23)[C@@H](F)C1"
Found: 5.32 µM

Lookup: What value of IC50 has been recorded for this entry: "COc1cc(-c2ncn(C)n2)ccc1NCC#Cc1sc2c(N[C@@H]3CCN(C)C[C@@H]3F)cccc2c1CC(F)(F)F"
Found: 7.55 µM

Lookup: What value of IC50 has been recorded for this entry: "[2H]C([2H])([2H])Oc1cc(P(C)(C)=O)ccc1NCC#Cc1sc2c(N[C@@H]3CCN(C4CCOCC4)C[C@@H]3F)cccc2c1CC(F)(F)F"
Found: 4.46 µM

Lookup: What value of IC50 has been recorded for this entry: CN1CC[C@@H](Nc2cccc3c(CC(F)(F)F)c(C#CCNC(=O)c4ccn(C(C)(C)C)c4)sc23)[C@@H](F)C1 (racemic)
Found: 6.85 µM

Lookup: What value of IC50 has been recorded for this entry: "COc1nc(P(C)(C)=O)ncc1NCC#Cc1sc2c(N[C@@H]3CCN(C)C[C@@H]3F)cccc2c1CC(F)(F)F"
Found: 13.7 µM

Lookup: What value of IC50 has been recorded for this entry: CNC(=O)c1ccc(NCC#Cc2sc3c(N[C@@H]4CCN(C)C[C@@H]4F)cccc3c2CC(F)(F)F)c(OCCOC)c1 (racemic)
Found: 8.64 µM

Lookup: What value of IC50 has been recorded for this entry: COc1cc(P(C)(C)=O)ccc1NCC#Cc1sc2c(NC3[C@@H]4COC[C@H]3CN(C)C4)cccc2c1CC(F)(F)F (single isomer, unassigned) [Example 196]
Found: 18.6 µM

Lookup: What value of IC50 has been recorded for this entry: "CN1CC[C@@H](Nc2cccc3c(CC(F)(F)F)c(C#CCNc4ccc(P(C)(C)=O)cc4F)sc23)[C@@H](F)C1"
Found: 11.5 µM

Lookup: What value of IC50 has been recorded for this entry: COCCNC(=O)c1ccc(NCC#Cc2sc3c(N[C@@H]4CCN(C)C[C@@H]4F)cccc3c2CC(F)(F)F)c(OC)c1 (relative stereo)
Found: 8.24 µM

---

System: NUGC4 (P53 WT)
Test: Cell viability assay (CellTiter-Glo, 6 days), NUGC4
Assay type: cell-based
Settings: Homo sapiens, NUGC-4, 144 h; cell viability, 6 days, CellTiter-Glo; read-out: NUGC4 (P53 WT) IC50
Metric: pIC50
In plain terms, pIC50 is the concentration in mol/L turned into minus its base-10 logarithm.

Lookup: Form: Entry = COc1cc(P(C)(C)=O)ccc1NCC#Cc1sc2c(N[C@H]3CCN(C)C[C@H]3C)cccc2c1CC(F)(F)F [Example 125] | System = NUGC4 (P53 WT) | pIC50 = ____
Found: 5.59

Lookup: Form: Entry = CP(C)(=O)c1ccc(NCC#Cc2sc3c(N[C@@H]4CCN(C5CCOCC5)C[C@@H]4F)cccc3c2CC(F)(F)F)c(OC2CC2)c1 [Example 161] | System = NUGC4 (P53 WT) | pIC50 = ____
Found: 4.89

Lookup: Form: Entry = COc1cc(P(C)(C)=O)ccc1NCC#Cc1sc2c(N[C@@H]3CCN(C4CCOCC4)C[C@@H]3F)cccc2c1CC(F)(F)F (racemic) [Example 73] | System = NUGC4 (P53 WT) | pIC50 = ____
Found: 5.47

Lookup: Form: Entry = CN1CC[C@@H](Nc2cccc3c(CC(F)(F)F)c(C#CCNc4ccc(P(C)(C)=O)c5ncsc45)sc23)[C@@H](F)C1 [Example 220] | System = NUGC4 (P53 WT) | pIC50 = ____
Found: 5.09

Lookup: Form: Entry = COc1cc(C(=O)NC2CCN(C)CC2(F)F)ccc1NCC#Cc1sc2c(N[C@@H]3CCN(C)C[C@@H]3F)cccc2c1CC(F)(F)F (relative stereo) [Example 94] | System = NUGC4 (P53 WT) | pIC50 = ____
Found: 5.56

Lookup: Form: Entry = COCC(O)CN1CC[C@@H](Nc2cccc3c(CC(F)(F)F)c(C#CCNc4ccc(P(C)(C)=O)cc4OC)sc23)[C@@H](F)C1 (relative stereo) [Example 97] | System = NUGC4 (P53 WT) | pIC50 = ____
Found: 5.24

Lookup: Form: Entry = COc1cc(S(C)(=O)=O)ccc1NCC#Cc1cc2c(N[C@H]3CCN(C)C[C@H]3F)cccc2n1CC(F)(F)F [Ref-1b, reference compound] | System = NUGC4 (P53 WT) | pIC50 = ____
Found: 4.90

Lookup: Form: Entry = COc1cc(S(C)(=O)=O)ccc1NCC#Cc1cc2c(N[C@@H]3CCN(C)C[C@@H]3F)cccc2n1CC(F)(F)F [Ref-1a, reference compound] | System = NUGC4 (P53 WT) | pIC50 = ____
Found: 4.96

Lookup: Form: Entry = COc1cc(P(C)(C)=O)ccc1NCC#Cc1sc2c(N[C@@H]3CCN(C(C)C)C[C@@H]3F)cccc2c1CC(F)(F)F (racemic) [Example 86] | System = NUGC4 (P53 WT) | pIC50 = ____
Found: 5.34

Lookup: Form: Entry = COc1cc(P(C)(C)=O)ccc1NCC#Cc1sc2c(N[C@@H]3CCN(C)C[C@H]3C)cccc2c1CC(F)(F)F [Example 128] | System = NUGC4 (P53 WT) | pIC50 = ____
Found: 5.65
